tested on: blackgrass (Alopecurus myosuroides); assay: Test A postemergence, blackgrass; type: in vivo; details: Postemergence, 500 g ai/ha; visual injury vs untreated controls after approx. 10 days; 0 to 100 scale (0 no effect, 100 complete control)
Please note: Fulfilled applies when Blackgrass plant response rating is 20 or greater, and Not fulfilled applies otherwise.

Take a look at these entries with their results.
CC(=O)OCN(c1cc(C2=NO[C@@H]3CCC[C@H]23)c(C)cc1C)S(=O)(=O)C(F)(F)F (relative stereo) [Compound 102] :: Not fulfilled
Cc1cc(C#N)c(C(=O)N(C)C)cc1NS(=O)(=O)C(F)(F)F [Compound 134] :: Not fulfilled
Cc1c(NS(=O)(=O)C(F)(F)F)cc(C(=O)N2CCC(F)CC2)c(C)c1F [Compound 109] :: Not fulfilled
CCn1nc(C)cc(-c2cc(N(S(=O)(=O)C(F)(F)F)S(=O)(=O)C(F)(F)F)c(C)cc2C)c1=O [Compound 52] :: Fulfilled
Cc1ccc(-c2ccnn(C)c2=O)cc1N(S(=O)(=O)C(F)(F)F)S(=O)(=O)C(F)(F)F [Compound 66] :: Not fulfilled

Query: Does the reported Blackgrass plant response rating for Cc1cc(C)c(N(S(=O)(=O)C(F)(F)F)S(=O)(=O)C(F)(F)F)cc1-c1ccnn(C)c1=O [Compound 76] fall at or above the 20 mark?
Reply: Fulfilled

Query: Is it the case that Cc1cc(F)c(C(=O)N2CCC(C#N)CC2)cc1N(S(=O)(=O)C(F)(F)F)S(=O)(=O)C(F)(F)F [Compound 239] has Blackgrass plant response rating reaching or exceeding 20?
Reply: Not fulfilled

Query: Decide: Blackgrass plant response rating of Cc1cc(C)c(-c2cc(Cl)nn(C)c2=O)cc1NS(=O)(=O)C(F)(F)F [Compound 72] >= 20?
Reply: Fulfilled

Query: Answer whether Blackgrass plant response rating of Cc1cc(F)c(C(=O)N(C)C)cc1NS(=O)(=O)C(F)(F)F [Compound 215] is greater than or equal to 20.
Reply: Not fulfilled

Query: hey, is Blackgrass plant response rating for this one >= 20? Cc1cc(C)c(N(S(=O)(=O)C(F)(F)F)S(=O)(=O)C(F)(F)F)cc1C1=NOC2(CCCCCC2)C1 [Compound 158]
Reply: Not fulfilled

Query: In plain terms: is recorded Blackgrass plant response rating at least 20 for CCn1cc(-c2cc(NS(=O)(=O)C(F)(F)F)c(C)cc2C)c(=O)n(CC)c1=O [Compound 44] ?
Reply: Fulfilled

Query: Identify whether the reported Blackgrass plant response rating of the following molecule is 20 or greater: Cc1cc(C)c(N(S(=O)(=O)C(F)(F)F)S(=O)(=O)C(F)(F)F)cc1C1=NOC2(CCC(C)(C)CC2)C1 [Compound 139]
Reply: Not fulfilled

Query: Entry C#CCN(C)C(=O)c1cc(NS(=O)(=O)C(F)(F)F)c(C)c(F)c1C [Compound 179] : is its Blackgrass plant response rating no less than 20?
Reply: Fulfilled

Query: Hi, just wondering whether Cc1cc(C)c(C2=NOC3(CCC(C)(C)CC3)C2)cc1NS(=O)(=O)C(F)(F)F [Compound 163] shows Blackgrass plant response rating of 20 or higher.
Reply: Fulfilled

Query: Hi, just wondering whether CSC(=O)N(c1cc(C2=NOC3(CCCC3)C2)c(C)cc1C)S(=O)(=O)C(F)(F)F [Compound 219] shows Blackgrass plant response rating of 20 or higher.
Reply: Not fulfilled

Query: # bool: Blackgrass plant response rating of Cc1cc(C)c(C(=O)N2CCC(F)(F)C2)cc1NS(=O)(=O)C(F)(F)F [Compound 202] >= 20
Reply: Not fulfilled
